Assignment: determine reported normalized growth for the given compounds.
experiment: chemical genetic growth profiling, strain panel (AID 1159580);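 further: tested at 20 µM; growth read once vehicle control cultures reached saturation at 30 °C; 1 = growth at the plate median or of vehicle wells; lower values mean less growth of the strain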; conditions: S. cerevisiae deletion strains, growth OD, locus YDL185W, strain tfp1, hits give low values
About 2,000 (36%) of roughly 5,500 compounds were called active. Inconclusive results (about 18%) are left out. The list shows a part of the results.
Answer field: number only, no words.

Ask | Which normalized growth value belongs to C=C1C(=O)OC2CC1C(OC(C)=O)C/C(C)=C/CC/C(C)=C/CC[C@]2(C)O (stereo not given in full) ?
Reply | 1.02

Ask | Which normalized growth value belongs to "O=C1OC(c2ccc(O)cc2)(c2ccc(O)cc2)c2ccccc21" ?
Reply | 0.954

Ask | Which normalized growth value belongs to CC(C(=O)O)c1ccc(C(=O)c2cccs2)cc1 (stereo not given) ?
Reply | 0.999

Ask | Which normalized growth value belongs to "CC1(C)O[C@H]2[C@H](O)C[C@](O)(C(N)=O)C[C@H]2O1" ?
Reply | 1.02

Ask | Which normalized growth value belongs to "CC1(C)NC(=O)N(c2ccc([N+](=O)[O-])c(C(F)(F)F)c2)C1=O" ?
Reply | 0.977

Ask | Which normalized growth value belongs to "COC(=O)C[C@H]1C(C)(C)C(=O)[C@@H]2CC3=C(CC[C@]4(C)C3=CC(=O)O[C@H]4c3ccoc3)[C@@]1(C)C2=O" ?
Reply | 1.01

Ask | Which normalized growth value belongs to CC1(C)OC(=O)C=CC2(C)C1CC(O)C1(C)C2CCC2(C)C(c3ccoc3)OC(=O)C3OC321 (stereo not given) ?
Reply | 1.02

Ask | Which normalized growth value belongs to "CC(=O)OCC(COC(C)=O)OC(C)=O" ?
Reply | 1.01

Ask | Which normalized growth value belongs to "CC[N+](CC)(CC)CCOc1cccc(OCC[N+](CC)(CC)CC)c1OCC[N+](CC)(CC)CC" ?
Reply | 1.02

Ask | Which normalized growth value belongs to COc1ccc2c(c1OC)C(=O)OC2[C@H]1c2c(cc3c(c2OC)OCO3)CCN1C (stereo not given in full) ?
Reply | 0.966

Ask | Which normalized growth value belongs to C=C1C(=O)O[C@@H]2C3O[C@]3(C)CC/C=C(\C)CC[C@@H]12 (stereo not given in full) ?
Reply | 0.913

Ask | Which normalized growth value belongs to "Oc1ccc(Cl)cc1" ?
Reply | 0.98

Ask | Which normalized growth value belongs to "Nc1ccc(N=Nc2ccccc2)c(N)n1" ?
Reply | 0.998

Ask | Which normalized growth value belongs to COC(=O)C(C)c1ccc(C(=O)c2cccs2)cc1 (stereo not given) ?
Reply | 0.939

Ask | Which normalized growth value belongs to "CCNC(=O)CC[C@H](N)C(=O)O" ?
Reply | 0.996

Ask | Which normalized growth value belongs to COC(=O)C(O)c1ccccc1 (stereo not given) ?
Reply | 0.949

Ask | Which normalized growth value belongs to "COC(=O)C1=CCCN(C)C1" ?
Reply | 0.992

Ask | Which normalized growth value belongs to CC(=O)OCC(OC(C)=O)C(OC(C)=O)C(OC(C)=O)C(OC(C)=O)C(COC(C)=O)OC(C)=O (stereo not given) ?
Reply | 0.991

Ask | Which normalized growth value belongs to "CC(C)C(=O)Nc1ccc([N+](=O)[O-])c(C(F)(F)F)c1" ?
Reply | 0.98

Ask | Which normalized growth value belongs to Oc1ccc2c(c1)OCC1c3cc4c(cc3OC21)OCO4 (stereo not given) ?
Reply | 0.964

Ask | Which normalized growth value belongs to C=C1CCC2C(CC2(C)C)C(=O)CCC1O (stereo not given) ?
Reply | 1.03

Ask | Which normalized growth value belongs to Nc1ccn(C2O[C@H](CO)[C@@H](O)[C@@H]2O)c(=O)n1 (stereo not given in full) ?
Reply | 0.991

Ask | Which normalized growth value belongs to CO[C@@]1(NC(=O)CSCC#N)C(=O)N2C(C(=O)O)=C(CSc3nnnn3C)CSC21 (stereo not given in full) ?
Reply | 1.03

Ask | Which normalized growth value belongs to "C=C1C(=O)O[C@@H]2C[C@@]3(C)CCC[C@H](C)C3=C[C@H]12" ?
Reply | 0.94

Ask | Which normalized growth value belongs to C#CCCCCCCCCCCCC(O)CC(O)CO (stereo not given) ?
Reply | 1.01

Ask | Which normalized growth value belongs to C=C1CCC(=O)C(C)CCC2C1CC2(C)C (stereo not given) ?
Reply | 1

Ask | Which normalized growth value belongs to "Cn1c(=O)c2[nH]cnc2n(C)c1=O" ?
Reply | 0.979

Ask | Which normalized growth value belongs to NS(=O)(=O)c1cc2c(cc1Cl)NC(C(Cl)Cl)NS2(=O)=O (stereo not given) ?
Reply | 1.02

Ask | Which normalized growth value belongs to "CC[C@H](C)C(=O)O[C@H]1C[C@@H](C)C=C2C=C[C@H](C)[C@H](CC[C@@H]3C[C@@H](O)CC(=O)O3)[C@H]21" ?
Reply | 0.977

Ask | Which normalized growth value belongs to "CO/N=C(\C(=O)N[C@@H]1C(=O)N2C(C(=O)O)=C(CSc3nc(=O)c(O)nn3C)CS[C@H]12)c1csc(N)n1" ?
Reply | 0.946

Ask | Which normalized growth value belongs to CC1=CC2C(CC1=O)C(C)=CCC2C(C)C (stereo not given) ?
Reply | 0.83

Ask | Which normalized growth value belongs to O=C1CC2OCC=C3CN4CC[C@]56c7ccccc7N1C5[C@H]2[C@H]3CC46 (stereo not given in full) ?
Reply | 0.983

Ask | Which normalized growth value belongs to C=C1CCC(OC(C)=O)/C(C)=C/C[C@@H]2[C@@H]1CC2(C)C (stereo not given in full) ?
Reply | 1.03

Ask | Which normalized growth value belongs to "Nc1nc2ncc(=O)[nH]c2c(=O)[nH]1" ?
Reply | 0.975

Ask | Which normalized growth value belongs to NC(CO)C(=O)NNCc1ccc(O)c(O)c1O (stereo not given) ?
Reply | 1

Ask | Which normalized growth value belongs to "COc1ccc(CCN2CCC(Nc3nc4ccccc4n3Cc3ccc(F)cc3)CC2)cc1" ?
Reply | 0.984

Ask | Which normalized growth value belongs to "CC(=O)OCC[C@H](C)CCC=C(C)C" ?
Reply | 1.02

Ask | Which normalized growth value belongs to "CN1C(C(=O)Nc2ccccn2)=C(O)c2ccccc2S1(=O)=O" ?
Reply | 0.922

Ask | Which normalized growth value belongs to CC1(C)O[C@@H]2CC3C4CCC5=CC(=O)CCC5(C)C4(F)C(O)CC3(C)[C@]2(C(=O)CCl)O1 (stereo not given in full) ?
Reply | 0.967

Ask | Which normalized growth value belongs to "Cc1cc(-c2ccccc2)nnc1NCCN1CCOCC1" ?
Reply | 0.941

Ask | Which normalized growth value belongs to C=CCSCC1Nc2cc(Cl)c(S(N)(=O)=O)cc2S(=O)(=O)N1 (stereo not given) ?
Reply | 1.02

Ask | Which normalized growth value belongs to "COc1c2ccoc2c(OC)c2oc(=O)ccc12" ?
Reply | 0.941

Ask | Which normalized growth value belongs to "Cc1cc(NC(=O)C2=C(O)c3ccccc3S(=O)(=O)N2C)no1" ?
Reply | 0.876

Ask | Which normalized growth value belongs to C#CCCCCCCCCCCCC(O)CC(O)COC(C)=O (stereo not given) ?
Reply | 0.963

Ask | Which normalized growth value belongs to CCCNC1CCc2nc(N)sc2C1 (stereo not given) ?
Reply | 1.01

----------
assay: chemical genetic growth profiling, strain panel (AID 1159580);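 further: tested at 20 µM; growth read once vehicle control cultures reached saturation at 30 °C; 1 = growth at the plate median or of vehicle wells; lower values mean less growth of the strain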; conditions: S. cerevisiae deletion strains, growth OD, locus YPL209C, strain IPL1
The whole screen tested about 5,500 compounds, of which about 2,000 (36%) were called active. Roughly 18% stayed inconclusive and do not appear here. No stated cut-off is given here; in the data, active means normalized growth mostly below about 0.91 (no sharp cut-off); inconclusive means no clear call, values can overlap the other calls; inactive means mostly above about 0.92. The list shows a part of the results.
Can you answer with just one of these options? Y (active), N (inactive)

Ask | Outcome logged for "CC(C)(C)c1ccc(C(=O)NNc2c(Cl)cccc2Cl)cc1" in this assay:
Reply | N

Ask | Outcome logged for "O=C(Nc1ccc(OC(F)(F)F)cc1)OC1CN(C(c2ccccc2)c2ccccc2)C1" in this assay:
Reply | N

Ask | Outcome logged for "CC(=O)Nc1ccc(S(=O)(=O)Nc2ccccc2Oc2ccc(Cl)cc2Cl)cc1" in this assay:
Reply | N

Ask | Outcome logged for O=[N+]([O-])c1ccc2oc(C(O)c3ccc(-c4ccccc4)cc3)cc2c1 (stereo not drawn) in this assay:
Reply | N

Ask | Outcome logged for "O=C(/C=C/Sc1nc2ccccc2s1)c1ccc(Cl)cc1" in this assay:
Reply | N

Ask | Outcome logged for OC(CN1CCN(c2nc3ccc(Cl)cc3s2)CC1)Cn1ccc2ccccc21 (stereo not drawn) in this assay:
Reply | N

Ask | Outcome logged for "O=[N+]([O-])c1ccc(Sc2ssc(=S)c2-c2ccccc2)nc1" in this assay:
Reply | N

Ask | Outcome logged for "CC(C)(CCC(C)(C)N1C(=O)c2cccc3cccc(c23)C1=O)N1C(=O)c2cccc3cccc(c23)C1=O" in this assay:
Reply | Y

Ask | Outcome logged for "Cc1c(-c2ccnn2C(=O)c2ccco2)cnn1-c1ccccc1" in this assay:
Reply | N

Ask | Outcome logged for "N#CC(C#N)=Cc1ccc(-c2ccccc2C(F)(F)F)o1" in this assay:
Reply | N

Ask | Outcome logged for "O=c1c2ccccc2[nH]c(=S)n1-c1cccc(C(F)(F)F)c1" in this assay:
Reply | N

Ask | Outcome logged for "FC(F)(F)c1ccnc(N2CCCN(C(=S)Nc3ccc(Cl)cc3Cl)CC2)n1" in this assay:
Reply | N

Ask | Outcome logged for "Cc1c(C(=O)N(Cc2ccccc2)Cc2cccs2)cnn1-c1ccc(Cl)cc1" in this assay:
Reply | N

Ask | Outcome logged for "CC(=O)ON=C1c2cc([N+](=O)[O-])ccc2-c2ccc([N+](=O)[O-])cc21" in this assay:
Reply | N

Ask | Outcome logged for "Cc1ccc(NS(=O)(=O)c2ccc(Cl)cc2)c(N=Cc2cc(Cl)cc(Cl)c2O)c1" in this assay:
Reply | N

Ask | Outcome logged for "O=C(Nc1ccc(Cl)cc1)OCCSc1nc2ccccc2s1" in this assay:
Reply | N

Ask | Outcome logged for "Cc1cccc(NC(=S)NNC(=O)CSCc2cccc3ccccc23)c1" in this assay:
Reply | N

Ask | Outcome logged for "CCc1ccn2cc(Nc3ccccc3Cl)nc2c1" in this assay:
Reply | N

Ask | Outcome logged for "Cc1c(C(=S)Nc2ccccc2)sc2ccccc12" in this assay:
Reply | N

Ask | Outcome logged for "Cc1onc(-c2c(Cl)cccc2Cl)c1C(=O)NNc1c(Cl)cccc1Cl" in this assay:
Reply | N

Ask | Outcome logged for "FC(F)(F)c1cccc(-n2c(CSCc3cccc4ccccc34)n[nH]c2=S)c1" in this assay:
Reply | N

Ask | Outcome logged for "Cc1ccc(NC(=O)c2ccccc2N=Cc2cc(Cl)cc(Cl)c2O)c(N=Cc2cc(Cl)cc(Cl)c2O)c1" in this assay:
Reply | N

Ask | Outcome logged for "CC1(C)OC(=O)C(=Cc2cccn2-c2ccc(OC(F)(F)F)cc2)C(=O)O1" in this assay:
Reply | N
